tested system: human calcium receptor (Homo sapiens, UniProt P41180)
Sequence (P41180 20-1078): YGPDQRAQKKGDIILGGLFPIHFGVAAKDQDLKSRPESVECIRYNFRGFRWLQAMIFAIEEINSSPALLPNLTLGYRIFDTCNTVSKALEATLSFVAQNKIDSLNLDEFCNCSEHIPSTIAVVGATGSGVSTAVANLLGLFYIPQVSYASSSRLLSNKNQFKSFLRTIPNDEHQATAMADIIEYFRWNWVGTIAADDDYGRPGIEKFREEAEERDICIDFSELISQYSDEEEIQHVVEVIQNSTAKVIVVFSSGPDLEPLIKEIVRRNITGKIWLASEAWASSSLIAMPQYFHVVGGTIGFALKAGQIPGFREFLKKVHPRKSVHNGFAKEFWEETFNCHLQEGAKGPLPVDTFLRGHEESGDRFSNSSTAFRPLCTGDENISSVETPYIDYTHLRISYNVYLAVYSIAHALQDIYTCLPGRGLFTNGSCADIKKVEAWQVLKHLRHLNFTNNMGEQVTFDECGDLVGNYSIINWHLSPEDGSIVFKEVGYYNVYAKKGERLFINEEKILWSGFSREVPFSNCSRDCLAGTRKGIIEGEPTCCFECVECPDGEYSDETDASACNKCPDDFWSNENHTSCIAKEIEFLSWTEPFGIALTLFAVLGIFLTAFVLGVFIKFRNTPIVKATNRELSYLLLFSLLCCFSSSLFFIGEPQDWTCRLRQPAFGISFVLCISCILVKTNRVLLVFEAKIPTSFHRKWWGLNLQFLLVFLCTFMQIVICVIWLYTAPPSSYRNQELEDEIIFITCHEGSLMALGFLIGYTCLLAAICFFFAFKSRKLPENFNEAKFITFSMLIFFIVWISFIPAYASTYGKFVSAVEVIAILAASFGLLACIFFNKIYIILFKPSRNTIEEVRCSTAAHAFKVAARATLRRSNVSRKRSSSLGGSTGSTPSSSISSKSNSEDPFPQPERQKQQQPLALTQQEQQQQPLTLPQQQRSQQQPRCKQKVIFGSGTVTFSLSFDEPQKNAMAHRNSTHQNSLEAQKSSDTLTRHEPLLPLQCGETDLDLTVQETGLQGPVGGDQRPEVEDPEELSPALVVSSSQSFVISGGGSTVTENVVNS
protocol: Activity on calcium receptors: fluo-3 fluorescence in HEK293 cells transfected with human calcium receptor gene
conditions used: HEK293 cells transfected with plasmid pHuPCaR4.0 (human calcium receptor gene), loaded with fluo-3; 1 mM CaCl2, 1 mM MgCl2
measured property: EC50 (nM)

Known EC50 results, listed for orientation:
compound: COc1cccc(C(C)NCCCCCCOc2cccc(Cl)c2)c1 (stereo not shown)
measured result: 1200
--
compound: COc1cccc(C(C)NCCCSc2ccc(Cl)c(Cl)c2)c1 (stereo not shown)
measured result: 170
--
compound: COc1cccc(C(C)NCCCOc2cccc(Cl)c2)c1 (stereo not shown)
measured result: 524
--
compound: C[C@@H](NCCC(=O)N(Cc1ccc(Cl)cc1)Cc1ccc(OC(F)(F)F)cc1)c1cccc2ccccc12
measured result: 93
--
compound: COc1cccc(C(C)NCCCCCCCCSc2cccc(Br)c2)c1 (stereo not shown)
measured result: 340

[a] COc1cccc(C(C)NCCCCCCCSc2ccc(Cl)c(Cl)c2)c1 (stereo not shown)
[b] COc1cccc(C(C)NCCCCOc2ccccc2Cl)c1 (stereo not shown)
[c] COc1cccc(C(C)NCCCSc2cccc(Cl)c2)c1 (stereo not shown)
[d] C[C@@H](NCCC(=O)N(Cc1ccc(Cl)cc1)Cc1ccccc1Cl)c1cccc2ccccc12
[e] C[C@@H](NCCCCCCSc1ccc(OC(F)(F)F)cc1)c1cccc2ccccc12
Put the compounds in ascending order of EC50. Answer format: the labels, in the requested order.
d, c, e, a, b

[A] COc1cccc(C(C)NCCCNC(C)c2cccc(OC)c2)c1 (stereo not shown)
[B] C[C@@H](NCCCCSc1ccc(OC(F)(F)F)cc1)c1cccc2ccccc12
Rank A against B by their EC50 values and give the higher one. State your choice using its label.
A

[a] COc1cccc([C@@H](C)NCCCCOc2ccc(Cl)cc2)c1
[b] COc1cccc(SCCCCN[C@H](C)c2cccc3ccccc23)c1
[c] C[C@@H](NCCCCSc1cc(Cl)c(Cl)cc1Cl)c1cccc2ccccc12
Put the compounds in ascending order of EC50. Answer format: the labels, in the requested order.
b, c, a
(b: 71 nM, c: 430 nM, a: 2900 nM)

[P] COc1cccc(C(C)NCCCCCSc2ccc(Cl)c(Cl)c2)c1 (stereo not shown)
[Q] Cc1ccc(SCCCCCN[C@H](C)c2cccc3ccccc23)cc1
[R] COc1cccc(C(C)NCCCOc2ccc(Br)cc2)c1 (stereo not shown)
Hello, I need these entries ordered by EC50, highest reading first. Thanks! Answer format: the labels, in the requested order.
P, R, Q

[1] COc1cccc(C(C)NCCCSc2ccc3ccccc3c2)c1 (stereo not shown)
[2] COc1cccc([C@@H](C)NCCSc2cc(Cl)ccc2Cl)c1
Kindly identify the item with the lower EC50 figure among these two: 1 and 2 State your choice using its label.
2
(2: 260 nM, 1: 1000 nM)

[1] CC(NCCSc1cc(Cl)ccc1Cl)c1cccc(OCc2ccc(Cl)cc2)c1 (racemic)
[2] COc1cccc(C(C)NCCCSc2cccc(Br)c2)c1 (stereo not shown)
Rank 1 against 2 by their EC50 values and give the higher one. State your choice using its label.
1
(1: 380 nM, 2: 140 nM)

[I] CC(NCCSc1cc(Cl)ccc1Cl)c1cccc(OCCCCCCCl)c1 (racemic)
[II] COc1cccc(C(C)NCCCCSc2ccc(Cl)c(Cl)c2)c1 (stereo not shown)
Kindly identify the item with the lower EC50 figure among these two: I and II State your choice using its label.
I
(I: 96 nM, II: 200 nM)

The origin of these recorded values is patent US7816408B2.
